Biological target: Androgen receptor (Homo sapiens) (UniProt P10275)
Sequence (P10275 whole entry, looked up): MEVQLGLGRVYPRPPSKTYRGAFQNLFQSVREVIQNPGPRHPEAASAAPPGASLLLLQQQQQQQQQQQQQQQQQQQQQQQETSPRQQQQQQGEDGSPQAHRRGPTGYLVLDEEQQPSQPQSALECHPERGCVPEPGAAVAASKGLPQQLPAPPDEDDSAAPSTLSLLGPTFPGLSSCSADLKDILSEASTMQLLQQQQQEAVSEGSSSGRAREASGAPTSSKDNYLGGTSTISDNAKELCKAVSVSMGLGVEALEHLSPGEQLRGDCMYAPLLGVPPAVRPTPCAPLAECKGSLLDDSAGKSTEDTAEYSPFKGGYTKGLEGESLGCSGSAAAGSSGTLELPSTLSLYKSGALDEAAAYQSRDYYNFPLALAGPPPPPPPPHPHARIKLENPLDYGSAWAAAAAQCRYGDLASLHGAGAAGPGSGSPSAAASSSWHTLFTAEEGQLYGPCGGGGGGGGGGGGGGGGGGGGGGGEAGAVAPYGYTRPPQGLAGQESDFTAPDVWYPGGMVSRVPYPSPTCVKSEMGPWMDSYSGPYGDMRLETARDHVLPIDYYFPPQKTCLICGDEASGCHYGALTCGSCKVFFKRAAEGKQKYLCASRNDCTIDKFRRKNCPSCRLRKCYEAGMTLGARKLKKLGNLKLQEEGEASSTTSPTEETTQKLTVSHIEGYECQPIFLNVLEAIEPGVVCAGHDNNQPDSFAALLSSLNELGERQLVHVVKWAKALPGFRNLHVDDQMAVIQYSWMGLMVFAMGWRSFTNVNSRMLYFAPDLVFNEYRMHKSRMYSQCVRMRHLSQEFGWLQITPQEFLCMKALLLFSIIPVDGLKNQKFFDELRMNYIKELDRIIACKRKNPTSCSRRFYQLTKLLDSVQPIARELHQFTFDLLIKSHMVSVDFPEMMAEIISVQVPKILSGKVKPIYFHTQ
Assay: qHTS assay to identify small molecule antagonists of the androgen receptor (AR) signaling pathway (AID 743035)
Conditions: HEK293 AR-UAS-bla, R1881-stimulated, beta-lactamase FRET, 16 h; series mostly up to 58.5 µM
Inconclusive results are not listed. Active and inactive are the calls of the source. Calls follow the shape of the dose curve; as a rule, active = well fitted inhibition curve with a large enough effect in the signal ratio in the repeat runs (not every such curve was filed as active); inconclusive = weak or mixed curves, or effect the other way; inactive = no such curve, though single readings can be large or run the other way; the % refers to the signal ratio.
parameter: outcome

compound	parameter	result
CN(C1CCCCC1)C1CCCCC1	outcome	inactive
O=C(NCNC(=O)NC1C(=O)NC(=O)N1CO)NC1C(=O)NC(=O)N1CO (stereo not drawn)	outcome	inactive
O=C(O)COc1cc(Cl)c(Cl)cc1Cl	outcome	inactive
CN(C)N	outcome	inactive
Clc1ccc2ccccc2c1	outcome	inactive
ClCc1ccccc1Cl	outcome	inactive
O=CC=O	outcome	inactive
CN1CC[C@]23c4c5ccc(O)c4O[C@H]2[C@@H](O)C=C[C@H]3[C@H]1C5	outcome	inactive
COCc1cnc(C2=NC(C)(C(C)C)C(=O)N2)c(C(=O)O)c1 (stereo not drawn)	outcome	inactive
CC(=O)NNc1ccccc1	outcome	inactive

For every record below, what is its outcome?
1. Cc1cnc(C2=NC(C)(C(C)C)C(=O)N2)c(C(=O)O)c1 (stereo not drawn)
2. C=C(Cl)Cl
3. CCOP(=S)(S)OCC

1: inactive; 2: inactive; 3: inactive

====

Assay: qHTS assay to test for compound auto fluorescence at 590 nm (red) in HepG2 cells (AID 720674)
Details: HepG2 autofluorescence, red 540/590 nm, 1 h; series mostly up to 91.3 µM
The source made the active and inactive calls. Calls come from the whole dose curve; as a rule, active = well fitted curve in the direction sought with a large enough effect in the repeat runs; inconclusive = weak or mixed curves; inactive = flat fitted curve, though single readings scatter.
parameter: fluorescence, relative to Rose Bengal

Guide cases for fluorescence, relative to Rose Bengal, answers given:
molecule	fluorescence, relative to Rose Bengal
CCCCCCCCCCCC[N+](C)(C)CCOc1ccccc1	inactive
O=CC=O	inactive
CC1(C)CC(=O)CC(C)(C)N1[O]	inactive
CC(C)(C#N)C(C)(C)C#N	inactive

For every item in the list below, what is its measured fluorescence, relative to Rose Bengal?
1. CCCC[P+](CC)(CCCC)CCCC (tested in a mixture with another compound)
2. CC(C)(C)N(NC(=O)c1ccc(Cl)cc1)C(=O)c1ccccc1
3. CC[N+]1(C)CCCC(OC(=O)C(O)(c2ccccc2)c2ccccc2)C1 (stereo not given)
4. Nc1cccc2ccccc12
5. COc1ccc(C(O)(c2cncnc2)C2CC2)cc1 (stereo not given)
6. NC(=S)c1c(Cl)cccc1Cl

1. inactive
2. inactive
3. inactive
4. inactive
5. inactive
6. inactive

Here are 2 molecules. What values of fluorescence, relative to Rose Bengal were reported for them?
1. CCCC1CCCCN1 (stereo not given)
2. O=C=NC1CCCCC1

inactive
inactive

Go through the items and report each one's fluorescence, relative to Rose Bengal.
1. CC(O)CN1CCN(CC(=O)[O-])CCN(CC(=O)[O-])CCN(CC(=O)[O-])CC1.[Gd+3] (stereo not given)
2. N#CC1(N=NC2(C#N)CCCCC2)CCCCC1
3. CCCCCCCCP(=O)(O)O
4. CC(C)OC(=O)Cc1ccccc1

1: inactive; 2: inactive; 3: inactive; 4: inactive

Need fluorescence, relative to Rose Bengal for each of these molecules.
1. CCOP(=S)(OCC)Oc1ccc(S(C)=O)cc1 (stereo not given)
2. Cc1cccc(C)c1NC1=NCCCS1
3. O=C(O)c1cc(I)cc(I)c1I
4. CN1CC[C@]23c4c5ccc(O)c4O[C@H]2[C@@H](O)CC[C@H]3[C@H]1C5
5. CC(C)C1(C)N=C(c2ncccc2C(=O)O)NC1=O (stereo not given)

["inactive", "inactive", "inactive", "inactive", "inactive"]

List the reported fluorescence, relative to Rose Bengal of each molecule below.
1. CC(C)(C)NCC(O)c1ccccc1Cl (stereo not given)
2. FC(F)OC(F)(F)C(F)Cl (stereo not given)
3. CCN(C(C)=O)c1cccc(-c2ccnc3c(C#N)cnn23)c1
4. CN1C[C@H](C(=O)N[C@]2(C)O[C@@]3(O)[C@@H]4CCCN4C(=O)[C@H](Cc4ccccc4)N3C2=O)C=C2c3cccc4[nH]cc(c34)C[C@H]21
5. O=C(O)COc1cc(Cl)c(Cl)cc1Cl
6. CCC1(CC)C(=O)NC(=O)NC1=O
7. CC(C)(C)c1ccc(CCOc2ncnc3ccccc23)cc1
8. C=CC(=O)NC(C)(C)CC(C)=O

["inactive", "inactive", "inactive", "inactive", "inactive", "inactive", "inactive", "inactive"]

Give fluorescence, relative to Rose Bengal for each of the items listed below.
1. COc1ccc2c(c1OC)C(=O)O[C@H]2[C@@H]1c2cc3c(cc2CCN1C)OCO3
2. C[CH2][Hg][S]c1ccccc1C(=O)O

inactive
inactive

Can you give me fluorescence, relative to Rose Bengal for all of these, one by one?
1. O=S(=O)(Cl)Cl
2. SCc1ccccc1
3. OCCSSCCO
4. CCCN(CCOc1c(Cl)cc(Cl)cc1Cl)C(=O)n1ccnc1
5. C=CCOC(=O)C(C)(C)OC(=O)c1cc(-n2c(=O)cc(C(F)(F)F)n(C)c2=O)ccc1Cl
6. O=C1NC(=O)C(=O)C(=O)N1

inactive
inactive
inactive
inactive
inactive
inactive

Please report fluorescence, relative to Rose Bengal for every entry that follows.
1. CCOP(=S)(S)OCC
2. CC(C)[C@@H](C(=O)O[C@@H](C#N)c1cccc(Oc2ccccc2)c1)c1ccc(Cl)cc1
3. CCCCCCCCCCCCCCCl
4. O=C(NCNC(=O)NC1C(=O)NC(=O)N1CO)NC1C(=O)NC(=O)N1CO (stereo not given)
5. Cc1ncc(C[n+]2csc(CCO)c2C)c(N)n1

inactive
inactive
inactive
inactive
inactive
